Values were extracted from the supplement of paper PMC9170038.

test system: MS2 coat protein; assay: apparent KD of MS2 coat protein; designed switch direction (-1 OFF switch, 1 ON switch): -1; higher = weaker reporter binding; conditions: input ligand: microRNA oligo, concentration not stated
Decide using apparent KD of MS2 coat protein: a value greater than or equal to 50 nM is yes, a smaller one is no.

# CHAIN_SEQUENCE, CLASS_ASSIGNMENT
records = [
    ("CUGCUCCGUGUAGGAUAUGCGCGCAACCAACGCGCAGAAGGACAUGAGGAUCACCCAUGUAUGUUAUUAUCACGUGAAGCGCAA [Design 31] (Eterna round: R96, puzzle: Exclusion NG 1)", "no"),
    ("UGCAUGUAAGGAUAUGCAUCCGCCGACGUCCCGGCGGCACAGCAGAAGGUACAUGAGGAUCACCCAUGUGUCCC [Qusousar] (Eterna round: R96, puzzle: Exclusion 4)", "no"),
    ("AUUAUAAGGAGAGGAUAUCUAAUAAUAUAUAUUAGAGAAGGCUCACAUGAGGAUCACCCAUGUUUUUUUUUUUUUUUUUUUUUU [Default title] (Eterna round: R96, puzzle: Exclusion NG 1)", "yes"),
    ("UUUGUCUGUGUGAGGAUAUACUUGUUUGGGUUUUUGUAGAAGGCACAUGAGGAUCACCCAUGUAUUUUGUUGUG [JR_BME4_Sub017] (Eterna round: R96, puzzle: Brourd's mod of Exclusion 4)", "no"),
    ("CCUAGUUGGUAAGGAUAUCCUACAUUGUUCUGACCCGGGCAUGCUACAUGAGGAUCACCCAUGUGGGAGAAGGUGCGUCAUCGC [Design 16] (Eterna round: R96, puzzle: Exclusion NG 2)", "yes"),
]

---

test system: MS2 coat protein; assay: apparent KD of MS2 coat protein; designed switch direction (-1 OFF switch, 1 ON switch): 1; higher = weaker reporter binding; details: input ligand: microRNA oligo, concentration not stated
As shown below, each of these sequences has a reported apparent KD of MS2 coat protein value.
EXPERIMENTAL_ENDPOINT: apparent KD of MS2 coat protein (nM)

# CHAIN_SEQUENCE, EXPERIMENTAL_ENDPOINT, RESULT_NUMBER
rows = [
    ("GGUAUCGGCACAGGAUAUGCUAUCCUUUGGGUAGCAGAAGGGUGGACAUGAGGAUCACCCAUGUAGGUGCCAGGGCGUGAGCCC [JL SSNG1 1.87] (Eterna round: R96, puzzle: Same State NG 1)", "apparent KD of MS2 coat protein", 26.3),
    ("UUGCGCUGUCGAGAGGAUAUGCGGUGUUGGACAUGAGGAUCACCCAUGUUAGCGAUUGCUUUACGGUAGAAGGCUCUUCAGCUGC [salish99_ss2_r3_098] (Eterna round: R96, puzzle: Same State 2)", "apparent KD of MS2 coat protein", 50.1),
    ("UGGUACAUGCGAGGAUAUGGGUUGAUGACAUGAGGAUCACCCAUGUUAAAUAUGCCGAGAGGCACCUAGAAGGCGCAUGUACCU [MOD2 of JL SSNG1 3.99] (Eterna round: R96, puzzle: Same State NG 2)", "apparent KD of MS2 coat protein", 23),
    ("UUAAUUAAUUAAUUAUACAUGAGGAUCACCCAUGUAAGUGAUCAGGAUAUCAGCUCGUUUAGAGCUGAGAAGGGAUACAUGAAU [SSNG3/12-A3] (Eterna round: R96, puzzle: Same State NG 3)", "apparent KD of MS2 coat protein", 85.9),
    ("AAUUUAAUACAUGAGGAUCACCCAUGUAAUACUUGUAAGAUCAAGGAUAUCAGCUCGAAUAGAGCUGAGAAGGUGAUCACAUGU [SSNG3/19-D1] (Eterna round: R96, puzzle: Same State NG 3)", "apparent KD of MS2 coat protein", 24.9),
    ("GGAAUAUGAUGUUACAUGAGGAUCACCCAUGUAGUAAUAACUAAGGAUAUCUGAGGAGGAGGAGAAGAGAAGGUAGGAUCAUAA [AK SSNG3-V2-10] (Eterna round: R96, puzzle: Same State NG 3)", "apparent KD of MS2 coat protein", 22.2),
    ("GGUAGGUUACUACCAACACAUGAGGAUCACCCAUGUUUUGGGAAGGAUAUGGUACCUAUUUGGUACCAGAAGGUCCAGUUAAUG [salish99_SSNG3_r04_701] (Eterna round: R96, puzzle: Same State NG 3)", "apparent KD of MS2 coat protein", 161),
    ("UUGAAUAAUUAAGGAUAUCGAGUACAUAUGUUAAACAUGAGGAUCACCCAUGUGGGUUGCGGUAUCGAGAAGGUAAAAGACAAG [Mat - Same State NG 2 - JL mod - D59] (Eterna round: R96, puzzle: Same State NG 2)", "apparent KD of MS2 coat protein", 25.6),
    ("GCUAGGAAUAAAGCCAACAUGAGGAUCACCCAUGUAUGUUGGUAGGAUAUCGUAUGCAAAGCAUACGAGAAGGGCUAACCUAGC [Mat - Same State NG 3 - JL Mod - D69] (Eterna round: R96, puzzle: Same State NG 3)", "apparent KD of MS2 coat protein", 49.5),
    ("AGCUAUUAAUCAGGAUAUGGUCACAUGAGGAUCACCCAUGUAUAGAUGAUUAAAUGUGGUCUAAACUAGAAGGGAUUGCUAACA [SameState NG2 #56] (Eterna round: R96, puzzle: Same State NG 2)", "apparent KD of MS2 coat protein", 523),
    ("GUGGUCCUCACAGGAUAUCAGCGGCCUUCACGCUGAGAAGGGUGACUGGGCUACAAGGCUAUAGACAUGAGGAUCACCCAUGUA [Direbe] (Eterna round: R96, puzzle: Same State NG 1)", "apparent KD of MS2 coat protein", 110),
    ("GAGCCAGUCCGAGGAUAUUCGUAGGAACACAUGAGGAUCACCCAUGUGGGCUCAGAAGAGCCCUGGGAGAAGGCGGGCUGGCUC [SS-NG2-LRO18] (Eterna round: R96, puzzle: Same State NG 2)", "apparent KD of MS2 coat protein", 8.45),
    ("UGUACAUGAGGAUCACCCAUGUCUAGACAUGUUAAUAUAAUGUAGGAUAUAUAAUAUUUAAAUUAAUAGAAGGACAAUUUUUUU [JMF's solution 3] (Eterna round: R96, puzzle: Same State NG 3)", "apparent KD of MS2 coat protein", 115),
    ("AAAAGAAACAUGUACCUGAGUACAUGAAAACAUGAGGAUCACCCAUGUAACAAGUUGGGUGCUUGUCUUAUAAGAAA [JL pocket 4] (Eterna round: R96, puzzle: Sensor for hsa-mir-208a)", "apparent KD of MS2 coat protein", 66.7),
    ("CGCGGUAAGGAAGGAUAUGGGACGAAAACGUACCUAGAAGGUCCACAUGAGGAUCACCCAUGUACCAAGAAAGCCGCUCAAUUA [Uszabeon] (Eterna round: R96, puzzle: Same State NG 1)", "apparent KD of MS2 coat protein", 260),
    ("UGAACCUUCACAGGAUAUCAUGCGAAAAUUGCGUGAGAAGGGUGGAUGUGGUGUUCAUAGUUGCACAUGAGGAUCACCCAUGUA [SameState NG1 #51] (Eterna round: R96, puzzle: Same State NG 1)", "apparent KD of MS2 coat protein", 124),
    ("GGUGCAAUUAACGCCUACAUGAGGAUCACCCAUGUAUGUAGGCAGGAUAUCGUUUGCAAAGCAAACGAGAAGGGCUAUAGUACC [Mat - Same State NG 3 - JL Mod - D43] (Eterna round: R96, puzzle: Same State NG 3)", "apparent KD of MS2 coat protein", 256),
    ("GUGGUCAGACAUGAGGAUCACCCAUGUGGAAUAAAUAAGGUUUAGGAUAUGGAAUAUAGGAUAUACCAGAAGGAAGGGUUGGUG (Eterna round: R96, puzzle: Same State NG 3)", "apparent KD of MS2 coat protein", 95.2),
]

---

test system: MS2 coat protein; experiment: apparent KD of MS2 coat protein; designed switch direction (-1 OFF switch, 1 ON switch): -1; higher = weaker reporter binding; conditions: input ligand: microRNA oligo, concentration not stated
# Lookup of reported apparent KD of MS2 coat protein keyed by entry

# CHAIN_SEQUENCE, apparent KD of MS2 coat protein [nM]
records = [
    ("ACUCACUCGCGAGGAUAUGGACAAAUAUAAACGCUAGAAGGCGCGACAUGAGGAUCACCCAUGUACUCACUCACUCACUCACAU [my 1st design ever] (Eterna round: R96, puzzle: Exclusion NG 1)", 27.5),
    ("CCAUAUAACUGAGGAUAUACGCACCACUAACUAGUAGAAGGCAGACAUGAGGAUCACCCAUGUGAUUUCUCAAUAUUAUACAUC [Prohibition 74 - Jieux - Exclusion NG 1] (Eterna round: R96, puzzle: Exclusion NG 1)", 357),
    ("CCGCUCCGUGUAGGAUAUUGGCCUGCUCUGGGUCGAGAAGGACAUGAGGAUCACCCAUGUAUGUUAUUAUCACGCGUGGCGCAU [Design 80] (Eterna round: R96, puzzle: Exclusion NG 1)", 18.9),
    ("AGUCGAAAGACAAAUAAAAACAUGAGGAUCACCCAUGUAAUGGGUGAAAACAAGCUCACCGUUCGUCUUAAAGAAAA [JL turnoff v1 57] (Eterna round: R96, puzzle: Sensor v2, turn-off variant)", 40.7),
    ("AGAUGCUCAAGUCGACAUGAGGAUCACCCAUGUACAGUUAAUGAGGAUAUCUGAGACAAAUAGUAGGAGAAGGCGUGAACAUGA [Ex NG3 #10] (Eterna round: R96, puzzle: Exclusion NG 3)", 26.5),
    ("CUUGUUUAUGUAGGAUAUGCCUGGCGUGCCUUUGCAGAAGGACAUGAGGAUCACCCAUGUAGUAUGAGGCUUACCCUUGUCGCC [salish99_ExNG1_r04_120] (Eterna round: R96, puzzle: Exclusion NG 1)", 19.9),
    ("UAUUUAUAUGAAGGAUAUACUUAACAUGAGGAUCACCCAUGUGGUGUUGUGAGUGAGUGAGUUUAGUAGAAGGUCAAGUAUUUU [JMF's solution 53] (Eterna round: R96, puzzle: Exclusion NG 2)", 378),
    ("AUAAUACAUGUAGGAUAUCUGCACGAUUAGUGCAGAGAAGGACAUGAGGAUCACCCAUGUAAUUAAGAUCAAUUAUUAAAUUAU [ENG1/3-D1] (Eterna round: R96, puzzle: Exclusion NG 1)", 63.9),
    ("GUAACAACUAGAGGAUAUCAGCACGUUUAGUGCUGAGAAGGCUAGAGUUACAUGAGGAUCACCCAUGUCUAGAGAUCAUUAAUU [ENG1/13-A2] (Eterna round: R96, puzzle: Exclusion NG 1)", 66.3),
]
